Where do the numbers come from? From PubChem BioAssay AID1963849.

Tested on: 299254-011-R-J1-PDC complex spheroid viability;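 note: spheroids exposed to drugs for one week before measurement; percent viability relative to DMSO vehicle control taken as 100%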
assay-method-text: Anticancer human tumor 299254-011-R-J1-PDC patient-derived melanoma cell line growth inhibition [POLQ]
cond: second compound 1 µM; first compound 0.1 µM; hits give low values
metric-name: viability, T/C (%)
Give just the number in %; leave the unit off.

Solved cases below.
{"columns": ["molecule", "viability, T/C [%]"],
 "data": [
  ["CCc1c2c(nc3ccc(O)cc13)-c1cc3c(c(=O)n1C2)COC(=O)[C@]3(O)CC + COC1C(OC(N)=O)C(O)C(Oc2ccc3c(O)c(NC(=O)c4ccc(O)c(CC=C(C)C)c4)c(=O)oc3c2C)OC1(C)C", 62.5],
  ["CC1COCCN1c1cc(-c2ccnn2C)c2ccnc(-c3ccn[nH]3)c2n1 (stereo unspecified) + Cc1cccc(N(C)C(=O)C2C(O)CCN2c2nc(C)cc(C(F)(F)F)c2C#N)c1", 73.1],
  ["CC(C)n1c(=O)n(C)c2cnc3cc(F)c(-c4ccc(OCCCN5CCCCC5)nc4)cc3c21 + Cc1cccc(N(C)C(=O)C2C(O)CCN2c2nc(C)cc(C(F)(F)F)c2C#N)c1", 96.5],
  ["CCc1cc2c(N3CCc4c(cc(Cn5ccnc5)cc4-c4cn(C)nc4C(F)(F)F)C3=O)ccnc2c(OC)n1 + COC1C(OC(N)=O)C(O)C(Oc2ccc3c(O)c(NC(=O)c4ccc(O)c(CC=C(C)C)c4)c(=O)oc3c2C)OC1(C)C", 110],
  ["COc1cc(C2c3cc4c(cc3C(OC3OC5COC(C)OC5C(O)C3O)C3COC(=O)C23)OCO4)cc(OC)c1O (stereo unspecified) + COC1C(OC(N)=O)C(O)C(Oc2ccc3c(O)c(NC(=O)c4ccc(O)c(CC=C(C)C)c4)c(=O)oc3c2C)OC1(C)C", 100],
  ["CNCc1ccc(-c2[nH]c3cc(F)cc4c3c2CCNC4=O)cc1 + Cc1cccc(N(C)C(=O)C2C(O)CCN2c2nc(C)cc(C(F)(F)F)c2C#N)c1", 109],
  ["C=CCn1c(=O)c2cnc(Nc3ccc(N4CCN(C)CC4)cc3)nc2n1-c1cccc(C(C)(C)O)n1 + Cc1cccc(N(C)C(=O)C2C(O)CCN2c2nc(C)cc(C(F)(F)F)c2C#N)c1", 99.8],
  ["CCc1cc2c(N3CCc4c(cc(Cn5ccnc5)cc4-c4cn(C)nc4C(F)(F)F)C3=O)ccnc2c(OC)n1 + Nc1ccc(C#CCN(C(=O)Cc2ncc(C(F)(F)F)cc2C(F)(F)F)c2ccc(F)cc2)nn1", 114],
  ["COc1cc(C2c3cc4c(cc3C(OC3OC5COC(C)OC5C(O)C3O)C3COC(=O)C23)OCO4)cc(OC)c1O (stereo unspecified) + Nc1ccc(C#CCN(C(=O)Cc2ncc(C(F)(F)F)cc2C(F)(F)F)c2ccc(F)cc2)nn1", 99.2],
  ["O=c1[nH]cc(F)c(=O)[nH]1 + Nc1ccc(C#CCN(C(=O)Cc2ncc(C(F)(F)F)cc2C(F)(F)F)c2ccc(F)cc2)nn1", 99.8]
]}

Could you tell me which viability, T/C is on file for COc1cc2cc(C(=O)CCC(=O)O)sc2cc1OC + Nc1ccc(C#CCN(C(=O)Cc2ncc(C(F)(F)F)cc2C(F)(F)F)c2ccc(F)cc2)nn1 ?
94.6

Sample CC1COCCN1c1cc(C2(S(C)(=N)=O)CC2)nc(-c2ccnc3[nH]ccc23)n1 (stereo unspecified) + Cc1cccc(N(C)C(=O)C2C(O)CCN2c2nc(C)cc(C(F)(F)F)c2C#N)c1 — what was its viability, T/C?
92.5

Quick one: viability, T/C for C#Cc1c(F)ccc2cc(O)cc(-c3ncc4c(N5CC6CCC(C5)N6)nc(OCC56CCCN5CC(F)C6)nc4c3F)c12 (stereo unspecified) + Cc1cccc(N(C)C(=O)C2C(O)CCN2c2nc(C)cc(C(F)(F)F)c2C#N)c1 ?
109
